Source listed as the supplement of paper PMC9013687.

tested on: Danio rerio embryo; assay: EC10 Head size_Decrease; higher = less potent; conditions: exposure time: 2 dpf
metric: EC10 Head size Decrease (µM)

                                   compound                   metric  observed_result
0  CC(C)(C)C(O)C(Oc1ccc(Cl)cc1)n1cncn1 (stereo not given)  EC10 Head size Decrease              132
1     O=C(O)CCc1nc(-c2ccccc2)c(-c2ccccc2)o1  EC10 Head size Decrease             10.8
2   C[Si](Cn1cncn1)(c1ccc(F)cc1)c1ccc(F)cc1  EC10 Head size Decrease             28.1
3  CCO/N=C(\CC)C1=C(O)CC(c2c(C)cc(C)cc2C)CC1=O (stereo not given)  EC10 Head size Decrease             74.7
4  CC(C)(C)C(O)/C(=C/c1ccc(Cl)cc1Cl)n1cncn1 (stereo not given)  EC10 Head size Decrease             3.64
5  CC1=C(/C=C/C(C)=C/C=C/C(C)=C/C(=O)O)C(C)(C)CCC1 [all-trans retinoic acid]  EC10 Head size Decrease            0.019
6                  COC(=O)Nc1nc2ccccc2[nH]1  EC10 Head size Decrease             2.81
7  CCOC(=O)N1CCC(=C2c3ccc(Cl)cc3CCc3cccnc32)CC1  EC10 Head size Decrease             2.55
8  CCCCOC(=O)[C@@H](C)Oc1ccc(Oc2ccc(C(F)(F)F)cn2)cc1  EC10 Head size Decrease             3.19
9  CCCCC(O)(Cn1cncn1)c1ccc(Cl)cc1Cl (stereo not given)  EC10 Head size Decrease             33.8
